Settings: bacteroides thetaiotaomicron, 12 h, 2 µM
Description: The drug is tested on Bacteroides thetaiotaomicron strain: 3731 for biotransformation. The drug concentrations were measured before and after a 12-h incubation by liquid-chromatography-coupled mass spectrometry (LC–MS)
readout: Bacterial Biotransformation

Example cases with answers are listed next.
| compound | result |
| --- | --- |
| CC(=O)Oc1ccc(C(c2ccc(OC(C)=O)cc2)c2ccccn2)cc1 | Compound metabolized |
| O=C1NCC2(CCN(CCc3ccccc3)CC2)O1 [FENSPIRIDE] | Compound metabolized |
| CN(C)CCC=C1c2ccccc2COc2ccccc21 [DOXEPIN] | Compound NOT metabolized |
| COC(=O)C1=C(C)NC(C)=C(C(=O)OC(C)C)C1c1cccc2nonc12 (stereo not given) | Compound NOT metabolized |

I would be grateful if you could provide Bacterial Biotransformation for each of the following entries.
1. CC12CC3CC(C)(C1)CC(N)(C3)C2 [MEMANTINE]
2. COc1ccc2[nH]c([S+]([O-])Cc3ncc(C)c(OC)c3C)nc2c1 (stereo not given)
3. CC(=O)OCC(=O)NCCCOc1cccc(CN2CCCCC2)c1 [ROXATIDINE ACETATE]
4. CC[C@@H](CO)NC(=O)[C@@H]1C=C2c3cccc4c3c(cn4C)C[C@H]2N(C)C1.O=C(O)/C=C\C(=O)O [METHYSERGIDE MALEATE]
5. CCC1(c2ccc(N)cc2)CCC(=O)NC1=O (stereo not given) [AMINOGLUTETHIMIDE]
6. CC(C)c1c(CN(C)C(C)Cc2ccccc2)n(C)n(-c2ccccc2)c1=O (stereo not given)
7. COc1ccc2cc([C@H](C)C(=O)O)ccc2c1
8. CN/C(=N/CCSCc1nc[nH]c1C)NC#N

**A:**
Compound NOT metabolized
Compound metabolized
Compound metabolized
Compound metabolized
Compound NOT metabolized
Compound metabolized
Compound NOT metabolized
Compound metabolized

I would be grateful if you could provide Bacterial Biotransformation for each of the following entries.
1. C[C@H]1O[C@@H](O[C@H]2[C@@H](O)C[C@H](O[C@H]3[C@@H](O)C[C@H](O[C@H]4CC[C@@]5(C)[C@H](CC[C@@H]6[C@@H]5C[C@@H](O)[C@]5(C)[C@@H](C7=CC(=O)OC7)CC[C@]65O)C4)O[C@@H]3C)O[C@@H]2C)C[C@H](O)[C@@H]1O
2. Cc1ccccc1N1C(=O)c2cc(S(N)(=O)=O)c(Cl)cc2NC1C (stereo not given)
3. COc1ccc2c3c1O[C@H]1C[C@@H](O)C=C[C@@]31CCN(C)C2

**A:**
Compound NOT metabolized
Compound NOT metabolized
Compound metabolized

I would be grateful if you could provide Bacterial Biotransformation for each of the following entries.
1. CC(=O)OCC(=O)[C@@]1(O)[C@@H](C)C[C@H]2[C@@H]3CCC4=CC(=O)C=C[C@]4(C)[C@@]3(F)[C@@H](O)C[C@@]21C [BETAMETHASONE ACETATE]
2. CO[C@]12C[C@@H](COC(=O)c3cncc(Br)c3)CN(C)[C@@H]1Cc1cn(C)c3cccc2c13
3. CS(=O)(=O)O.O.O.O.O=C1Cc2cc(CCN3CCN(c4nsc5ccccc45)CC3)c(Cl)cc2N1 [ZIPRASIDONE MESYLATE]
4. COC1=CC(=O)C[C@@H](C)[C@]12Oc1c(Cl)c(OC)cc(OC)c1C2=O
5. CNC(=C[N+](=O)[O-])NCCSCc1ccc(CN(C)C)o1

**A:**
1. Compound NOT metabolized
2. Compound NOT metabolized
3. Compound NOT metabolized
4. Compound NOT metabolized
5. Compound NOT metabolized
